- tested-on: hKv3.1b (Homo sapiens)
- Construct: expressed in transfected cells
- Sequence (P48547 1-585 isoform P48547-2): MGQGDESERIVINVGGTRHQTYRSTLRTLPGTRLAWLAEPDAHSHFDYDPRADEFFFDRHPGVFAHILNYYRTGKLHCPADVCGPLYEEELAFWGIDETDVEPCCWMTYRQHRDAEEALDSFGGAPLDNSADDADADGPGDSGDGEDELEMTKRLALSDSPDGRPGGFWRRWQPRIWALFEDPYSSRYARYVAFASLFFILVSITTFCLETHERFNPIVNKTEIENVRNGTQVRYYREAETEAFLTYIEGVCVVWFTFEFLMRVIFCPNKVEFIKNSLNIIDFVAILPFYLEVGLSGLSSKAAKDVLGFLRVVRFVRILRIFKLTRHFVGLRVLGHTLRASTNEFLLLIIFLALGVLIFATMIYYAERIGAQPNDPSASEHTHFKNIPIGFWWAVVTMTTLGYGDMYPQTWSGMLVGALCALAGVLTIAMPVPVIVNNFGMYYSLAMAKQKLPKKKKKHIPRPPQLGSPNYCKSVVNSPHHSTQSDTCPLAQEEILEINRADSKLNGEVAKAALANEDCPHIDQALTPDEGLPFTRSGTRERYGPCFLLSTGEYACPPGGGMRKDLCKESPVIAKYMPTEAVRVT
- protocol-details: Automated whole-cell patch-clamp (QPatch-16x) on HEK-293 cells stably expressing hKv3.1b: shift of voltage threshold for channel activation
- Format: cell-based
- particulars: concentration needed to shift the threshold 5 mV, read out from fitted concentration response curve; HEK-293 hKv3.1b

# smiles-entry, ECdelta5mV
records = [
    ("Cc1ccc(S(=O)(=O)n2ccc(C(=O)NCc3ncc(C)cn3)n2)cc1", "2600 nM"),
    ("COc1ccc(S(=O)(=O)n2ccc(C(=O)NCc3ncn(C)n3)n2)cc1", "4000 nM"),
    ("Cc1cnc(CNC(=O)c2ccn(S(=O)(=O)c3ccc(F)cc3C)n2)cn1", "2400 nM"),
    ("COc1ccc(S(=O)(=O)n2ccc(C(=O)NCc3ccon3)n2)cc1", "3800 nM"),
    ("COc1ccc(S(=O)(=O)n2ccc(C(=O)NCc3nc(C)cs3)n2)cc1", "1300 nM"),
    ("Cc1ccc(S(=O)(=O)n2ccc(C(=O)NCc3ncco3)n2)cc1", "2800 nM"),
    ("COc1ccc(S(=O)(=O)n2ccc(C(=O)NCc3cnccn3)n2)c(C)c1", "1600 nM"),
    ("Cc1cnc(CNC(=O)c2ccn(S(=O)(=O)c3ccc(C4CC4)cc3)n2)cn1", "990 nM"),
    ("Cc1ccc(CNC(=O)c2ccn(S(=O)(=O)c3ccccc3C)n2)nc1", "3300 nM"),
    ("Cc1cnc(CNC(=O)c2ccn(S(=O)(=O)c3ccccc3C)n2)nc1", "6500 nM"),
    ("COc1ccc(S(=O)(=O)n2ccc(C(=O)NCc3cnccn3)n2)cc1", "1600 nM"),
    ("Cc1ccc(S(=O)(=O)n2ccc(C(=O)NCc3cn(C)nn3)n2)cc1", "1800 nM"),
    ("Cc1ccc(CNC(=O)c2ccn(S(=O)(=O)c3ccc(F)cc3)n2)nc1", "2800 nM"),
    ("Cc1cc(CNC(=O)c2ccn(S(=O)(=O)c3ccccc3)n2)on1", "4500 nM"),
    ("Cc1ccc(S(=O)(=O)n2ccc(C(=O)NCc3cn(C)cn3)n2)cc1", "1900 nM"),
    ("COc1ccc(S(=O)(=O)n2ccc(C(=O)NCc3nc(C)no3)n2)cc1", "2000 nM"),
    ("Cc1cnc(CNC(=O)c2ccn(S(=O)(=O)c3ccc(Cl)cc3)n2)cn1", "1500 nM"),
    ("COc1ccc(S(=O)(=O)n2ccc(C(=O)NCc3ccc(C)cn3)n2)cc1", "2000 nM"),
]
